system: cIAP1-BIR3 (Homo sapiens (Human))
Sequence (Q13490 253-363): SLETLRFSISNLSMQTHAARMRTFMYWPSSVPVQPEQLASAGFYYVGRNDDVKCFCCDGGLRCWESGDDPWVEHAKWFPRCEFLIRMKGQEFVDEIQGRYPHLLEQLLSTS
protocol.text: BIR binding assay (FRET competition), cIAP1 BIR3
conditions: fold separation (FS) for cIAP1

{"columns": ["molecule", "cIAP1 BIR3 vs BIR2 separation window"],
 "data": [
  ["C[C@@H]1CN(CC(=O)N2CC(C)(C)c3[nH]c(=O)c(Cc4ccc(F)cc4)cc32)[C@@H](CN2CCC[C@@H](NC(=O)CCCCCCCCCCCCC(=O)N[C@@H]3CCCN(C[C@H]4CN[C@H](C)CN4CC(=O)N4CC(C)(C)c5[nH]c(=O)c(Cc6ccc(F)cc6)cc54)C3)C2)CN1 [Example 46]", "+++ (10,000>FS>1,000)"],
  ["C[C@@H]1CN(CC(=O)N2CC(C)(C)c3[nH]c(=O)c(Cc4ccc(F)cc4)cc32)[C@@H](CN2CCO[C@H](C(=O)Nc3cccc(NC(=O)[C@@H]4CN(C[C@H]5CN[C@H](C)CN5CC(=O)N5CC(C)(C)c6[nH]c(=O)c(Cc7ccc(F)cc7)cc65)CCO4)c3)C2)CN1 [Compound 140]", "+++ (10,000>FS>1,000)"],
  ["C[C@@H]1CN(CC(=O)N2CC(C)(C)c3[nH]c(=O)c(Cc4ccc(F)cc4)cc32)[C@@H](CN2CCO[C@H](C(=O)NCCNC(=O)[C@@H]3CN(C[C@H]4CN[C@H](C)CN4CC(=O)N4CC(C)(C)c5[nH]c(=O)c(Cc6ccc(F)cc6)cc54)CCO3)C2)CN1 [Example 128]", "+++ (10,000>FS>1,000)"],
  ["C[C@@H]1CN(CC(=O)N2CC(C)(C)c3[nH]c(=O)c(Cc4ccc(F)cc4)cc32)[C@@H](CN2CCN(C(=O)CCCCCCCCC(=O)N3CCN(C[C@H]4CN[C@H](C)CN4CC(=O)N4CC(C)(C)c5[nH]c(=O)c(Cc6ccc(F)cc6)cc54)[C@H](C)C3)C[C@H]2C)CN1 [Example 3]", "++ (1,000>FS>100)"],
  ["C[C@@H]1CN(CC(=O)N2CC(C)(C)c3[nH]c(=O)c(Cc4c(F)c(F)c(F)c(F)c4F)cc32)[C@@H](CN2CCO[C@H](C(=O)NCc3ccc(CNC(=O)[C@@H]4CN(C[C@H]5CN[C@H](C)CN5CC(=O)N5CC(C)(C)c6[nH]c(=O)c(Cc7c(F)c(F)c(F)c(F)c7F)cc65)CCO4)cc3)C2)CN1 [Compound 176]", "++ (1,000>FS>100)"],
  ["C[C@@H]1CN(CC(=O)N2CC(C)(C)c3[nH]c(=O)c(Cc4ccc(F)cc4)cc32)[C@@H](CN2CCO[C@H](C(=O)NCCCN(C)C(=O)[C@@H]3CN(C[C@H]4CN[C@H](C)CN4CC(=O)N4CC(C)(C)c5[nH]c(=O)c(Cc6ccc(F)cc6)cc54)CCO3)C2)CN1 [Compound 135]", "+++ (10,000>FS>1,000)"],
  ["C[C@@H]1CN(CC(=O)N2CC(C)(C)c3[nH]c(=O)c(Cc4ccc(F)cc4)cc32)[C@@H](CN2CCO[C@H](C(=O)N[C@H]3CC[C@H](NC(=O)[C@@H]4CN(C[C@H]5CN[C@H](C)CN5CC(=O)N5CC(C)(C)c6[nH]c(=O)c(Cc7ccc(F)cc7)cc65)CCO4)CC3)C2)CN1 [Example 92]", "+++ (10,000>FS>1,000)"]
]}
